System: galium (catchweed bedstraw, Galium aparine)
Experimental protocol: Test A postemergence, galium
Format: in vivo
Experimental context: 500 g ai/ha, visual injury, 0 to 100 scale (0 no effect, 100 complete control), approximately 10 days
Measurement kind: Plant response rating, Galium

> print(dat)
                                    molecule  value
 1  CN1CC(c2cccc(Sc3ccccc3)c2)C(C(=O)Nc2ccccc2F)C1=O (single isomer, unassigned)     40
 2  CN1CC(c2cccc(Oc3ccc(F)cc3)c2)C(C(=O)Nc2cccc(F)c2F)C1=O (single isomer, unassigned)     70
 3  CN1CC(c2cccc(Oc3ccc(C(F)(F)F)cn3)c2)C(C(=O)Nc2cccc(F)c2F)C1=O (single isomer, unassigned)     80
 4  O=C1NCC(c2cccc(Oc3ccccn3)c2)C1C(=O)Nc1ccccc1Cl (stereo not drawn)      0
 5  O=C1NCC(c2cccc(OCC3OCCO3)c2)C1C(=O)Nc1ccccc1F (stereo not drawn)      0
 6  CN1CC(c2cccc(Oc3ccc(F)cn3)c2)C(C(=O)Nc2cccc(F)c2F)C1=O (single isomer, unassigned)     70
 7  CN1CC(c2cccc(Sc3ccccc3)c2)C(C(=O)Nc2cccc(F)c2F)C1=O (single isomer, unassigned)     50
 8  O=C1NCC(c2cccc(OCc3ccccc3)c2)C1C(=O)Nc1ccc(F)cc1F (stereo not drawn)      0
 9  CC1(COc2cccc(C3CNC(=O)C3C(=O)Nc3ccccc3F)c2)COC1 (stereo not drawn)      0
10  CC1(COc2cccc(C3CNC(=O)C3C(=O)Nc3cccc(F)c3F)c2)COC1 (stereo not drawn)     40
11  O=C1NCC(c2cccc(COc3ccccc3)c2)C1C(=O)Nc1ccc(F)cc1F (stereo not drawn)      0
12  O=C1NCC(c2cccc(OCc3ccccc3)c2)C1C(=O)Nc1ccc(F)c(F)c1F (stereo not drawn)      0
